- Test system: Escherichia coli
- Protocol description: Antibacterial activity against clinical isolate Escherichia coli AB 117 assessed as inhibition of bacterial growth incubated for 22 to 24 hrs
- Assay type: functional
- Setup conditions: time 22-24 hrs
Quick reference: MIC of the listed items.

Below, 2 compounds whose answers are already recorded.
compound_smiles=COc1cc(CN2CCN(S(=O)(=O)c3ccc(C)cc3)CC2)nc2ccc(F)cc12 subject_of_test="Escherichia coli" quantity_name=MIC readout_value="> 64 µg/mL"
compound_smiles=COc1cc(CN2CCN(C(=O)c3ccccc3F)CC2)nc2ccc(F)cc12 subject_of_test="Escherichia coli" quantity_name=MIC readout_value="> 64 µg/mL"

Switching to the query record.
Query "COc1ccc2nc(CN3CCN(C(=O)c4ccc(Cl)c(Cl)c4)CC3)cc(OC)c2c1" yields MIC of > 64 µg/mL

###

- System: Staphylococcus epidermidis
- Protocol description: Antibacterial activity against clinical isolate methicillin resistant Staphylococcus epidermidis AB 735 assessed as inhibition of bacterial growth incubated for 22 to 24 hrs
- Format: functional
- Setup conditions: time 22-24 hrs
Quick reference: MIC of the listed items.

Query "COc1ccc(S(=O)(=O)N2CCN(Cc3cc(OC)c4cc(F)ccc4n3)CC2)cc1" yields MIC of > 64 µg/mL

###

- System: Staphylococcus epidermidis
- Protocol description: Antibacterial activity against clinical isolate methicillin resistant Staphylococcus epidermidis AB 735 assessed as inhibition of bacterial growth incubated for 22 to 24 hrs
- Assay type: functional
- Setup conditions: time 22-24 hrs
Quick reference: MIC of the listed items.

compound_smiles=CC(=O)NC[C@H]1CN(c2ccc(N3CCOCC3)c(F)c2)C(=O)O1 quantity_name=MIC readout_value="8 µg/mL"
compound_smiles=COc1cc(CN2CCN(C(=O)c3ccccc3F)CC2)nc2ccc(F)cc12 quantity_name=MIC readout_value="> 64 µg/mL"
compound_smiles=COc1ccc2nc(CN3CCN(S(=O)(=O)c4ccc(F)cc4)CC3)cc(OC)c2c1 quantity_name=MIC readout_value="> 64 µg/mL"
compound_smiles=COc1ccc2nc(CN3CCN(S(=O)(=O)c4c(F)c(F)c(F)c(F)c4F)CC3)cc(OC)c2c1 quantity_name=MIC readout_value="> 64 µg/mL"
compound_smiles=COc1ccc2nc(CN3CCN(C(=O)c4ccccc4F)CC3)cc(OC)c2c1 quantity_name=MIC readout_value="> 64 µg/mL"

Log: Staphylococcus epidermidis, molecule "COc1ccc2nc(CN3CCN(S(=O)(=O)c4cccc5ccccc45)CC3)cc(OC)c2c1" , MIC = > 64 µg/mL

Log: Staphylococcus epidermidis, molecule "COc1ccc2nc(CN3CCN(C(=O)c4ccccc4OC)CC3)cc(OC)c2c1" , MIC = > 64 µg/mL

Log: Staphylococcus epidermidis, molecule "COc1ccc2nc(CN3CCN(S(=O)(=O)c4ccccc4F)CC3)cc(OC)c2c1" , MIC = 32 µg/mL

Log: Staphylococcus epidermidis, molecule "COc1ccc2nc(CN3CCN(S(=O)(=O)c4ccccc4C(F)(F)F)CC3)cc(OC)c2c1" , MIC = 16 µg/mL

Log: Staphylococcus epidermidis, molecule "COc1ccc2nc(CN3CCN(S(=O)(=O)c4ccc(NC(C)=O)cc4)CC3)cc(OC)c2c1" , MIC = > 64 µg/mL

Log: Staphylococcus epidermidis, molecule "COc1ccc2nc(CN3CCN(C(=O)C4CCC4)CC3)cc(OC)c2c1" , MIC = > 64 µg/mL

Log: Staphylococcus epidermidis, molecule "COc1cc(CN2CCN(S(=O)(=O)c3ccc(NC(C)=O)cc3)CC2)nc2ccc(F)cc12" , MIC = 64 µg/mL

Log: Staphylococcus epidermidis, molecule "COc1cc(CN2CCN(S(=O)(=O)c3ccccc3F)CC2)nc2ccc(F)cc12" , MIC = 16 µg/mL

Log: Staphylococcus epidermidis, molecule "COc1ccc2nc(CN3CCN(C(=O)c4c(Cl)cccc4Cl)CC3)cc(OC)c2c1" , MIC = > 64 µg/mL

Log: Staphylococcus epidermidis, molecule "COc1cc(CN2CCN(S(=O)(=O)c3ccc(Cl)cc3Cl)CC2)nc2ccc(F)cc12" , MIC = > 64 µg/mL

Log: Staphylococcus epidermidis, molecule "COc1ccc2nc(CN3CCN(C(=O)c4ccc(Cl)cc4Cl)CC3)cc(OC)c2c1" , MIC = > 64 µg/mL

Log: Staphylococcus epidermidis, molecule "COc1cc(CN2CCN(C(=O)c3ccccc3C)CC2)nc2ccc(F)cc12" , MIC = > 64 µg/mL

Log: Staphylococcus epidermidis, molecule "COc1cc(Cc2cnc(N)nc2N)cc(OC)c1OC" , MIC = > 8 µg/mL

Log: Staphylococcus epidermidis, molecule "COc1ccc(C(=O)N2CCN(Cc3cc(OC)c4cc(F)ccc4n3)CC2)cc1" , MIC = > 64 µg/mL

Log: Staphylococcus epidermidis, molecule "COc1cccc(C(=O)N2CCN(Cc3cc(OC)c4cc(OC)ccc4n3)CC2)c1" , MIC = > 64 µg/mL

Log: Staphylococcus epidermidis, molecule "COc1ccc2nc(CN3CCN(S(=O)(=O)c4cccs4)CC3)cc(OC)c2c1" , MIC = > 64 µg/mL

Log: Staphylococcus epidermidis, molecule "CNS(=O)(=O)N1CCN(Cc2cc(OC)c3cc(OC)ccc3n2)CC1" , MIC = > 64 µg/mL

Log: Staphylococcus epidermidis, molecule "COc1ccc2nc(CN3CCN(S(=O)(=O)c4c(C)cc(C)cc4C)CC3)cc(OC)c2c1" , MIC = > 64 µg/mL

Log: Staphylococcus epidermidis, molecule "COc1cc(CN2CCN(S(=O)(=O)c3ccc(C)cc3)CC2)nc2ccc(F)cc12" , MIC = 32 µg/mL

###

- System: Staphylococcus epidermidis
- Protocol description: Antibacterial activity against clinical isolate methicillin resistant Staphylococcus epidermidis AB 735 assessed as inhibition of bacterial growth incubated for 22 to 24 hrs
- Type: functional
- Setup conditions: time 22-24 hrs
Quick reference: MIC of the listed items.

Below, 2 compounds whose answers are already recorded.
compound_smiles=COc1ccc2nc(CN3CCN(C(=O)c4ccc(Cl)c(Cl)c4)CC3)cc(OC)c2c1 readout_value="> 64 µg/mL"
compound_smiles=COc1cc(CN2CCN(C(=O)c3cccc(F)c3)CC2)nc2ccc(F)cc12 readout_value="> 64 µg/mL"

Query "COc1cc(CN2CCN(C(=O)c3cccc(Cl)c3)CC2)nc2ccc(F)cc12" yields MIC of > 64 µg/mL

Hello, the source for this data is ChEMBL document CHEMBL5230166, in case you need it.
